molecular target: Kappa-type opioid receptor (Homo sapiens, UniProt P41145); experiment: GPCRScan assay: inhibition of KOR; design: radioligand conc. used [nm] 0.6 – 1.2, parental cells stable HEK; conditions: read-out: Ki
Sequence (P41145 whole entry): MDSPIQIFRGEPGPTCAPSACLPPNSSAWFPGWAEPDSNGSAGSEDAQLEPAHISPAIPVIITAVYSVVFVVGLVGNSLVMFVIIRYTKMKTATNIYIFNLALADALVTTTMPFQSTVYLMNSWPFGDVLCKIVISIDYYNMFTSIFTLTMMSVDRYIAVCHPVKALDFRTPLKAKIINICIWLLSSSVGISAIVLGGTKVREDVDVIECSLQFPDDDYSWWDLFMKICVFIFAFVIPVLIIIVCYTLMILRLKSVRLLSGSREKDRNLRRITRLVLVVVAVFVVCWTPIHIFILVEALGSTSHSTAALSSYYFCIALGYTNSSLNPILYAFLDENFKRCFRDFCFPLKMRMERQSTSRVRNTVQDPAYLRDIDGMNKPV
Measured Metric: Ki (nM)
Use nM as the unit, but write only the number.

Per the record, "CN1CCN(C(=O)C(C)(C)c2ccc(C(=O)Nc3cn4cc(-c5cc(C(C)(C)C)cc(C(C)(C)C)c5)ccc4n3)cc2)CC1" has Ki of 990

---

Molecular target: Alpha-1D adrenergic receptor (Homo sapiens, UniProt P25100)
Sequence (P25100 whole entry): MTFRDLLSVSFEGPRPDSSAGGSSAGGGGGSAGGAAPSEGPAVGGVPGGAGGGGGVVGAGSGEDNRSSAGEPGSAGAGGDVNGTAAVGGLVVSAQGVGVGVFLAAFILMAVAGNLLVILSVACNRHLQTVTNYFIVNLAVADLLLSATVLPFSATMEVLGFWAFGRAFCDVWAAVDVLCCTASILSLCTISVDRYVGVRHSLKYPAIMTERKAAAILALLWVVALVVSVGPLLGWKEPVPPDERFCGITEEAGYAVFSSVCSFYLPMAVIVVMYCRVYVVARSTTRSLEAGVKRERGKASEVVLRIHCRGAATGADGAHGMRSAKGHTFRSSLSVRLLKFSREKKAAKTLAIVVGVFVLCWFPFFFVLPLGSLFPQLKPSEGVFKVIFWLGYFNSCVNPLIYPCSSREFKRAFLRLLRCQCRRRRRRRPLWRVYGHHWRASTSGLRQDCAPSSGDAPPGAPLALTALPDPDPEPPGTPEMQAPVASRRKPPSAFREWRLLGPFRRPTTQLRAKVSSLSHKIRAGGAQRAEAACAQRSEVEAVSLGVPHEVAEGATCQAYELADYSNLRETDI
Measured Metric: pKi
Lab note: report pKi as minus log10 of the concentration in molar units, number only.

Per the record, "CN1CCN(C(=O)C(C)(C)c2ccc(C(=O)Nc3cn4cc(-c5cc(C(C)(C)C)cc(C(C)(C)C)c5)ccc4n3)cc2)CC1" has pKi of 5.84
